Measured IC50 accompanies every entry in the list below.
Target: human jejunal NK-2 receptor (Homo sapiens, UniProt P21452)
Construct: expressed in transfected cells; host or cells: HSKR-1 (mouse 3T3 fibroblasts)
Sequence (P21452 whole entry): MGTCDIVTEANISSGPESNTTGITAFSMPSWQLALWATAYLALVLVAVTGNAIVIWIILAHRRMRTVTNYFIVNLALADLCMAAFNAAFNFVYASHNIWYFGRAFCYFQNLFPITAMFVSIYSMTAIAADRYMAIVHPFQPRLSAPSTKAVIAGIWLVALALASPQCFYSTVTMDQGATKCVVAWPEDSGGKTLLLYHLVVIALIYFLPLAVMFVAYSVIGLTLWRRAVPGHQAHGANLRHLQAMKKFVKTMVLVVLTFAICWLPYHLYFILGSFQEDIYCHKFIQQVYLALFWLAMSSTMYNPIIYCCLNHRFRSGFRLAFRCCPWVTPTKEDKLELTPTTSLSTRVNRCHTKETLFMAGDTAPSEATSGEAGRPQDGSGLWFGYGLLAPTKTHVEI
Test: NK-2 receptor binding (125I-neurokinin A) in HSKR-1 cell membranes
Conditions: HSKR-1 cells (mouse 3T3 fibroblasts expressing human jejunal NK-2 receptor); 0.1 nM 125I-iodohistidyl-1-neurokinin A; mean ± S.E.M.
Where a SMILES comes first, the peptide text is derived from it. [ ]: non-standard residue; d: D form.

# count of solved cases: 2
# COMPOUND, TESTED_SYSTEM, IC50
measured = [
    ("CC(C)C[C@@H]1NC(=O)[C@@H](Cc2c[nH]c3ccccc23)NC(=O)[C@H](Cc2ccc(O)cc2)NC(=O)[C@H](C)NC(=O)[C@H](Cc2c[nH]c3ccccc23)NC(=O)[C@H](CCCNC(=N)N)NC1=O [cyclo[Tyr--trp--Leu--Arg--Trp--Ala], cyclo[Tyr-trp-Leu-Arg-Trp-Ala]] (cyclo(AY[dW]LRW))", "human jejunal NK-2 receptor (Homo sapiens, UniProt P21452)", "9.9 nM"),
    ("CC(C)C[C@@H]1NC(=O)[C@@H](Cc2c[nH]c3ccccc23)NC(=O)[C@H](Cc2ccc(O)cc2)NC(=O)[C@@H](C)NC(=O)[C@H](Cc2c[nH]c3ccccc23)NC(=O)[C@H](CCCNC(=N)N)NC1=O [cyclo[Tyr--trp--Leu--Arg--Trp--ala]] (cyclo(LRW[dA]Y[dW]))", "human jejunal NK-2 receptor (Homo sapiens, UniProt P21452)", "7.99 nM"),
]

# ---- query compound ----
Input N=C(N)NCCC[C@@H]1NC(=O)[C@@H]2CCCN2C(=O)[C@@H](Cc2c[nH]c3ccccc23)NC(=O)[C@H](Cc2ccc(O)cc2)NC(=O)CNC(=O)[C@H](Cc2c[nH]c3ccccc23)NC1=O [cyclo[Tyr--trp--Pro--Arg--Trp--Gly], cyclo[Tyr-trp-Pro-Arg-Trp-Gly]] (cyclo(GY[dW]PRW)) . Output IC50: 5.13 nM

###

Molecular target: human jejunal NK-2 receptor (Homo sapiens)
Construct: expressed in transfected cells; host or cells: HSKR-1 (mouse 3T3 fibroblasts)
Experiment: NK-2 receptor binding (125I-neurokinin A) in HSKR-1 cell membranes
Conditions: HSKR-1 cells (mouse 3T3 fibroblasts expressing human jejunal NK-2 receptor); 0.1 nM 125I-iodohistidyl-1-neurokinin A; mean ± S.E.M.
Where a SMILES comes first, the peptide text is derived from it. [ ]: non-standard residue; d: D form. Phe(4-NO2) = N[C@@H](Cc1ccc([N+](=O)[O-])cc1)C(=O)O; Phe(4-Cl) = N[C@@H](Cc1ccc(Cl)cc1)C(=O)O; Phe(4-NH2) = Nc1ccc(C[C@H](N)C(=O)O)cc1
METRIC_NAME: log10 of IC50 (log10 of the value in nM)
The common logarithm of IC50 in nM is what is listed.

# count of solved cases: 8
# COMPOUND, log10 of IC50
records = [
    ("CC(C)C[C@@H]1NC(=O)[C@H](Cc2c[nH]c3ccccc23)NC(=O)[C@H](Cc2ccc(O)cc2)NC(=O)CNC(=O)[C@H](Cc2c[nH]c3ccccc23)NC(=O)[C@H](CCCNC(=N)N)NC1=O [cyclo[Tyr--Trp--Leu--Arg--Trp--Gly]] (cyclo(GYWLRW))", 2.48),
    ("CC(C)C[C@@H]1NC(=O)[C@@H](Cc2c[nH]c3ccccc23)NC(=O)[C@H](Cc2ccc(O)cc2)NC(=O)[C@H](Cc2c[nH]c3ccccc23)NC(=O)CNC(=O)[C@H](CCCNC(=N)N)NC1=O [cyclo[Tyr--trp--Leu--Arg--Gly--Trp], cyclo[Tyr-trp-Leu-Arg-Gly-Trp]] (cyclo(GWY[dW]LR))", 2.56),
    ("CC(C)C[C@@H]1NC(=O)[C@@H](Cc2c[nH]c3ccccc23)NC(=O)[C@H](Cc2ccc(O)cc2)NC(=O)[C@H](C)NC(=O)[C@H](Cc2ccc(O)cc2)NC(=O)[C@H](CCCNC(=N)N)NC1=O [cyclo[Tyr--trp--Leu--Arg--Tyr--Ala], cyclo[Tyr-trp-Leu-Arg-Tyr-Ala]] (cyclo(AY[dW]LRY))", 2.31),
    ("N=C(N)NCCC[C@@H]1NC(=O)[C@@H]2CCCN2C(=O)[C@@H](Cc2ccccc2)NC(=O)[C@H](Cc2ccccc2)NC(=O)CNC(=O)[C@H](Cc2ccccc2)NC1=O [cyclo[Phe--phe--Pro--Arg--Phe--Gly], cyclo[Phe-phe-Pro-Arg-Phe-Gly]] (cyclo(FGF[dF]PR))", 2.83),
    ("CC(C)C[C@@H]1NC(=O)[C@@H](Cc2c[nH]c3ccccc23)NC(=O)[C@H](Cc2ccc(O)cc2)NC(=O)CNC(=O)[C@@H](Cc2c[nH]c3ccccc23)NC(=O)[C@H](CCCNC(=N)N)NC1=O [cyclo[Tyr--trp--Leu--Arg--trp--Gly]] (cyclo(GY[dW]LR[dW]))", 2.29),
    ("C[C@@H]1NC(=O)[C@@H](Cc2c[nH]c3ccccc23)NC(=O)[C@H](Cc2ccc(O)cc2)NC(=O)CNC(=O)[C@H](Cc2c[nH]c3ccccc23)NC(=O)[C@H](CCCNC(=N)N)NC1=O [cyclo[Tyr--trp--Ala--Arg--Trp--Gly], cyclo[Tyr-trp-Ala-Arg-Trp-Gly]] (cyclo(ARWGY[dW]))", 1.75),
    ("CC(C)C[C@@H]1NC(=O)[C@@H](Cc2c[nH]c3ccccc23)NC(=O)[C@H](Cc2ccc(O)cc2)NC(=O)CNC(=O)[C@H](Cc2ccc(N)cc2)NC(=O)[C@H](CCCNC(=N)N)NC1=O [cyclo[Tyr-trp-Leu-Arg-(p-NH2 -Phe)-Gly]] (cyclo(GY[dW]LR[Phe(4-NH2)]))", 1.31),
    ("CC(C)C[C@@H]1NC(=O)[C@H](CCC(N)=O)NC(=O)[C@@H](Cc2ccc(O)cc2)NC(=O)CNC(=O)[C@H](Cc2c[nH]c3ccccc23)NC(=O)[C@H](CCCNC(=N)N)NC1=O [cyclo[tyr--Gln--Leu--Arg--Trp--Gly], cyclo[tyr-Gln-Leu-Arg-Trp-Gly]] (cyclo(G[dY]QLRW))", 2.61),
]

Measured log10 of IC50 (human jejunal NK-2 receptor (Homo sapiens)), entry CC(C)C[C@@H]1NC(=O)[C@@H](Cc2c[nH]c3ccccc23)NC(=O)[C@@H](Cc2ccc(O)cc2)NC(=O)CNC(=O)[C@H](Cc2c[nH]c3ccccc23)NC(=O)[C@H](CCCNC(=N)N)NC1=O [cyclo[tyr--trp--Leu--Arg--Trp--Gly]] (cyclo(G[dY][dW]LRW)) : 0.70

Measured log10 of IC50 (human jejunal NK-2 receptor (Homo sapiens)), entry CC(C)C[C@@H]1NC(=O)[C@@H](Cc2c[nH]c3ccccc23)NC(=O)[C@H](Cc2c[nH]c3ccccc23)NC(=O)CNC(=O)[C@H](Cc2c[nH]c3ccccc23)NC(=O)[C@H](CCCNC(=N)N)NC1=O [cyclo[Trp--trp--Leu--Arg--Trp--Gly], cyclo[Trp-trp-Leu-Arg-Trp-Gly]] (cyclo(GW[dW]LRW)) : 0.67

Measured log10 of IC50 (human jejunal NK-2 receptor (Homo sapiens)), entry CC(C)C[C@@H]1NC(=O)[C@@H](Cc2c[nH]c3ccccc23)NC(=O)[C@H](Cc2ccc(O)cc2)NC(=O)CNC(=O)[C@H](Cc2ccc([N+](=O)[O-])cc2)NC(=O)[C@H](CCCNC(=N)N)NC1=O [cyclo[Tyr-trp-Leu-Arg-(p-NO2 -Phe)-Gly]] (cyclo(GY[dW]LR[Phe(4-NO2)])) : 1.07

Measured log10 of IC50 (human jejunal NK-2 receptor (Homo sapiens)), entry CC(C)C[C@@H]1NC(=O)[C@@H](Cc2c[nH]c3ccccc23)NC(=O)[C@H](Cc2ccc(O)cc2)NC(=O)CNC(=O)[C@H](Cc2ccc(Cl)cc2)NC(=O)[C@H](CCCNC(=N)N)NC1=O [cyclo[Tyr-trp-Leu-Arg-(p-Cl-Phe)-Gly]] (cyclo(GY[dW]LR[Phe(4-Cl)])) : 1.12

Measured log10 of IC50 (human jejunal NK-2 receptor (Homo sapiens)), entry CC(C)C[C@@H]1NC(=O)[C@@H](Cc2c[nH]c3ccccc23)NC(=O)[C@H](Cc2ccc(O)cc2)NC(=O)CNC(=O)[C@H](Cc2c[nH]c3ccccc23)NC(=O)[C@H](CCCNC(=N)N)NC1=O [cyclo[Tyr--trp--Leu--Arg--Trp--Gly], cyclo[Tyr-trp-Leu-Arg-Trp-Gly]] (cyclo(GY[dW]LRW)) : 0.83

###

Measured IC50 accompanies every entry in the list below.
Molecular target: NK-1 receptor (Cavia porcellus, UniProt P30547)
Construct: tissue Keystone Biologicals, Cleveland, OH; host or cells: guinea pig lung
Sequence (P30547 whole entry): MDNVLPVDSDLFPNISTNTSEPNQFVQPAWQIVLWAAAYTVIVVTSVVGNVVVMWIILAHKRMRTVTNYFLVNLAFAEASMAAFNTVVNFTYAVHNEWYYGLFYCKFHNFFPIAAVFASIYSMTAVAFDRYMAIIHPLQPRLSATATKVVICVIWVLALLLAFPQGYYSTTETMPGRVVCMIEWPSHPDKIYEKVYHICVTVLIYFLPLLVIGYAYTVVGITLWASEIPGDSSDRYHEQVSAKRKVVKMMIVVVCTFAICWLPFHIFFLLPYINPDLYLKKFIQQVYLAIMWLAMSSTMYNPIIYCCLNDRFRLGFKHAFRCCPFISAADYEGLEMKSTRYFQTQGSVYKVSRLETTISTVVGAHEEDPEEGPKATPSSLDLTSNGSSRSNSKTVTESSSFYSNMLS
Experiment: NK-1 receptor binding (125I-Bolton-Hunter substance P) in guinea pig lung membranes
Settings: 0.1 nM 125I-Bolton-Hunter Lys-3 substance P, mean ± S.E.M.
Where a SMILES comes first, the peptide text is derived from it. [ ]: non-standard residue; d: D form. Phe(4-NO2) = N[C@@H](Cc1ccc([N+](=O)[O-])cc1)C(=O)O; Phe(4-NH2) = Nc1ccc(C[C@H](N)C(=O)O)cc1

# COMPOUND, IC50
measured = [
    ("CC(C)C[C@@H]1NC(=O)[C@@H](Cc2c[nH]c3ccccc23)NC(=O)[C@H](Cc2ccc(O)cc2)NC(=O)CNC(=O)[C@H](Cc2ccc(N)cc2)NC(=O)[C@H](CCCNC(=N)N)NC1=O [cyclo[Tyr-trp-Leu-Arg-(p-NH2 -Phe)-Gly]] (cyclo(GY[dW]LR[Phe(4-NH2)]))", "> 10000 nM"),
    ("CC(C)C[C@@H]1NC(=O)[C@@H](Cc2c[nH]c3ccccc23)NC(=O)[C@H](Cc2ccc(O)cc2)NC(=O)[C@@H]2CCCN2C(=O)[C@H](Cc2c[nH]c3ccccc23)NC(=O)[C@H](CCCNC(=N)N)NC1=O [cyclo[Tyr--trp--Leu--Arg--Trp--Pro], cyclo[Tyr-trp-Leu-Arg-Trp-Pro]] (cyclo(LRWPY[dW]))", "5170 nM"),
    ("CC(C)C[C@@H]1NC(=O)[C@@H](Cc2c[nH]c3ccccc23)NC(=O)[C@@H](Cc2ccc(O)cc2)NC(=O)CNC(=O)[C@H](Cc2c[nH]c3ccccc23)NC(=O)[C@H](CCCNC(=N)N)NC1=O [cyclo[tyr--trp--Leu--Arg--Trp--Gly]] (cyclo(G[dY][dW]LRW))", "> 10000 nM"),
]

# ---- query compound ----
Input CC(C)C[C@@H]1NC(=O)[C@@H](Cc2c[nH]c3ccccc23)NC(=O)[C@H](Cc2ccc(O)cc2)NC(=O)CNC(=O)[C@H](Cc2ccc([N+](=O)[O-])cc2)NC(=O)[C@H](CCCNC(=N)N)NC1=O [cyclo[Tyr-trp-Leu-Arg-(p-NO2 -Phe)-Gly]] (cyclo(GY[dW]LR[Phe(4-NO2)])) . Output IC50: > 10000 nM
